- studyTarget: FPR1 (Homo sapiens, UniProt P21462)
- Sequence (P21462 1-350): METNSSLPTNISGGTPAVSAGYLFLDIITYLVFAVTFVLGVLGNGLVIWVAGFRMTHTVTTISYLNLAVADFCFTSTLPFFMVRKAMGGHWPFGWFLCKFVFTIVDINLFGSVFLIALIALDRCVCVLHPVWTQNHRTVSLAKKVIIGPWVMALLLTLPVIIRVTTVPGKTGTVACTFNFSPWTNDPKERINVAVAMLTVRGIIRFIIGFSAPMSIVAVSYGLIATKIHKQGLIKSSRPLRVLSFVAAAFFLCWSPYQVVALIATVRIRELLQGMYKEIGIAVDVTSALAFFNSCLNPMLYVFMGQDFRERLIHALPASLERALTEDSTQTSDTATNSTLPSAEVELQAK
- protocol: Change in calcium activity by peptide, FPR1 activation effect
- statedConditions: calcium activity (Fura-2), graded per Table 3, read-out: EC50 for [Ca^2+] FPR1
Peptide text beside a SMILES is read from it.
measuredMetric: EC50

The examples below pair each entry with its known result.
{"columns": ["compound", "measuredMetric", "recordedResult"],
 "data": [
  ["CSCC[C@H](N)C(=O)N[C@@H](CCCNC(=N)N)C(=O)N[C@@H](Cc1ccc(O)cc1)C(=O)N[C@@H](Cc1ccc(O)cc1)C(=O)N[C@H](C(=O)N[C@H](CCSC)C(N)=O)C(C)C [Peptide 100] (HELM PEPTIDE1{M.R.Y.Y.V.[dM].[am]}$$$$V2.0)", "EC50", "1 to 10 µM"],
  ["CCCC(=O)N[C@@H](CCSC)C(=O)N[C@@H](CCCCN)C(=O)N[C@@H](Cc1ccc(O)cc1)C(=O)N[C@@H](CCCCN)C(=O)N1CCC[C@H]1C(=O)N[C@H](CCSC)C(N)=O [Peptide 72] (HELM PEPTIDE1{[CCCC(=O)[*:2]].M.K.Y.K.P.[dM].[am]}$$$$V2.0)", "EC50", "> 10 µM"],
  ["CCCC(=O)N1CCC[C@H]1C(=O)N[C@@H](CCSC)C(=O)N[C@@H](CCCNC(=N)N)C(=O)N[C@@H](Cc1ccc(O)cc1)C(=O)N[C@@H](CCCCN)C(=O)N[C@@H](Cc1ccc(O)cc1)C(=O)N[C@H](CCSC)C(N)=O [Peptide 47] (HELM PEPTIDE1{[CCCC(=O)[*:2]].P.M.R.Y.K.Y.[dM].[am]}$$$$V2.0)", "EC50", "> 10 µM"],
  ["CSCC[C@H](NC(C)=O)C(=O)N[C@@H](CCCCN)C(=O)N[C@@H](Cc1ccc(O)cc1)C(=O)N[C@@H](Cc1c[nH]c2ccccc12)C(=O)N1CCC[C@H]1C(=O)N[C@H](CCSC)C(N)=O [Peptide 114] (HELM PEPTIDE1{[ac].M.K.Y.W.P.[dM].[am]}$$$$V2.0)", "EC50", "1 to 10 µM"],
  ["CCCCCCCC(=O)N[C@@H](CCCNC(=N)N)C(=O)N[C@@H](CCSC)C(=O)N[C@@H](CCCNC(=N)N)C(=O)N[C@@H](Cc1ccc(O)cc1)C(=O)N[C@@H](CCCCN)C(=O)N[C@H](C(=O)N[C@H](CCSC)C(N)=O)C(C)C [Peptide 8] (HELM PEPTIDE1{[CCCCCCCC(=O)[*:2]].R.M.R.Y.K.V.[dM].[am]}$$$$V2.0)", "EC50", "> 10 µM"],
  ["CSCC[C@H](NC(C)=O)C(=O)N[C@@H](CCCNC(=N)N)C(=O)N[C@@H](Cc1ccc(O)cc1)C(=O)N[C@@H](CCCCN)C(=O)N[C@H](C(=O)N[C@H](CCSC)C(N)=O)C(C)C [Peptide 14] (HELM PEPTIDE1{[ac].M.R.Y.K.V.[dM].[am]}$$$$V2.0)", "EC50", "1 to 10 µM"],
  ["CSCC[C@@H](NC(=O)[C@H](Cc1ccc(O)cc1)NC(=O)[C@H](Cc1c[nH]c2ccccc12)NC(=O)[C@H](Cc1ccc(O)cc1)NC(=O)[C@H](CCCNC(=N)N)NC(=O)[C@@H](N)Cc1c[nH]c2ccccc12)C(N)=O [Peptide 79] (HELM PEPTIDE1{W.R.Y.W.Y.[dM].[am]}$$$$V2.0)", "EC50", "> 10 µM"],
  ["CCCCCCCC(=O)N[C@@H](CCSC)C(=O)N[C@@H](CCCCN)C(=O)N[C@@H](Cc1ccc(O)cc1)C(=O)N[C@@H](CCCCN)C(=O)N[C@H](C(=O)N[C@H](CCSC)C(N)=O)C(C)C [Peptide 20] (HELM PEPTIDE1{[CCCCCCCC(=O)[*:2]].M.K.Y.K.V.[dM].[am]}$$$$V2.0)", "EC50", "> 10 µM"]
]}

### Prompt Print FPR1 (Homo sapiens, UniProt P21462) EC50 for CSCC[C@@H](NC(=O)[C@H](Cc1ccc(O)cc1)NC(=O)[C@H](Cc1ccc(O)cc1)NC(=O)[C@H](Cc1ccc(O)cc1)NC(=O)[C@H](CCCNC(=N)N)NC(=O)[C@H](Cc1c[nH]c2ccccc12)NC(C)=O)C(N)=O [Peptide 124] (HELM PEPTIDE1{[ac].W.R.Y.Y.Y.[dM].[am]}$$$$V2.0) .
### Response 1 to 10 µM

### Prompt Using FPR1 (Homo sapiens, UniProt P21462) as the test system, report measured EC50 of CSCC[C@H](NC(=O)[C@H](CCCNC(=N)N)NC(C)=O)C(=O)N[C@@H](CCCNC(=N)N)C(=O)N[C@@H](Cc1ccc(O)cc1)C(=O)N[C@@H](CCCCN)C(=O)N[C@H](C(=O)N[C@H](CCSC)C(N)=O)C(C)C [Peptide 6] (HELM PEPTIDE1{[ac].R.M.R.Y.K.V.[dM].[am]}$$$$V2.0) .
### Response > 10 µM

### Prompt Enter EC50 (test system FPR1 (Homo sapiens, UniProt P21462)) for CSCC[C@@H](NC(=O)[C@@H](NC(=O)[C@H](Cc1ccc(O)cc1)NC(=O)[C@H](Cc1ccc(O)cc1)NC(=O)[C@H](CCCNC(=N)N)NC(=O)[C@H](Cc1c[nH]c2ccccc12)NC(C)=O)C(C)C)C(N)=O [Peptide 95] (HELM PEPTIDE1{[ac].W.R.Y.Y.V.[dM].[am]}$$$$V2.0)
### Response 0.101 to 1 µM

### Prompt State, for FPR1 (Homo sapiens, UniProt P21462), measured EC50 of the compound listed here: CSCC[C@@H](NC(=O)[C@@H](NC(=O)[C@H](Cc1c[nH]c2ccccc12)NC(=O)[C@H](Cc1ccc(O)cc1)NC(=O)[C@H](CCCNC(=N)N)NC(=O)[C@H](Cc1c[nH]c2ccccc12)NC(C)=O)C(C)C)C(N)=O [Peptide 102] (HELM PEPTIDE1{[ac].W.R.Y.W.V.[dM].[am]}$$$$V2.0)
### Response 0.101 to 1 µM

### Prompt Name the recorded EC50 of CCCCCCCC(=O)N[C@H](C(=O)N[C@@H](CCCCN)C(=O)N[C@@H](Cc1ccc(O)cc1)C(=O)N[C@@H](CCCCN)C(=O)N[C@H](C(=O)N[C@H](CCSC)C(N)=O)C(C)C)[C@@H](C)CC [Peptide 137] (HELM PEPTIDE1{[CCCCCCCC(=O)[*:2]].I.K.Y.K.V.[dM].[am]}$$$$V2.0) , assay system FPR1 (Homo sapiens, UniProt P21462).
### Response 1 to 10 µM
